# Tested on: HPB-ALL;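 note: ALL cell lines in 384-well plates, five doses spanning 10,000-fold, each plate scaled between vehicle and 100 µmol/L benzalkonium chloride controls, sDSS an adapted area-under-curve metric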
# method: selective drug sensitivity score (sDSS, relative to normal bone marrow) (sDSS (score)); higher = more potent and effective on the cell line relative to normal bone marrow cells
# applied-conditions: 72 h
measured-metric: selective drug sensitivity score

Below: 3 compounds and their reported selective drug sensitivity score.
compound	selective drug sensitivity score
COc1cccc2c1C(=O)c1c(O)c3c(c(O)c1C2=O)C[C@@](O)(C(=O)CO)C[C@@H]3O[C@H]1C[C@H](N)[C@H](O)[C@H](C)O1 [Doxorubicin] (top concentration 1000 nM)	-0.42
C=CCN(/C=C1/C(=O)O[C@H](COC)[C@@]2(C)C1=C(O)C(=O)C1=C2[C@H](OC(C)=O)C[C@]2(C)C(=O)CC[C@@H]12)CC=C [Sonolisib] (top concentration 10000 nM)	-0.76
CC(C)c1cc(-c2n[nH]c(=O)n2-c2ccc3c(ccn3C)c2)c(O)cc1O [Ganetespib] (top concentration 1000 nM)	0.64

I have 6 compounds here; please give me selective drug sensitivity score for each one.
1. O=C(CCCCCCC(=O)Nc1ccc([C@H]2O[C@@H](CSc3nc(-c4ccccc4)c(-c4ccccc4)o3)C[C@@H](c3ccc(CO)cc3)O2)cc1)NO [Tubacin] (top concentration 10000 nM)
2. CC[C@@H](C(=O)[C@@H](C)[C@@H](O)[C@H](C)[C@@H]1O[C@@H]([C@@H](CC)C(=O)O)CC[C@@H]1C)[C@H]1O[C@]2(C=C[C@@H](O)[C@]3(CC[C@@](C)([C@H]4CC[C@](O)(CC)[C@H](C)O4)O3)O2)[C@H](C)C[C@@H]1C [Salinomycin] (top concentration 50000 nM)
3. CC1(C)CNc2cc(NC(=O)c3cccnc3NCc3ccncc3)ccc21 [Motesanib] (top concentration 10000 nM)
4. COc1ccc(Cn2ccc3ccc(C(=O)NO)cc32)cc1 (top concentration 10000 nM)
5. CCOCc1nc2c(N)nc3ccccc3c2n1CC(C)(C)O [Resiquimod] (top concentration 10000 nM)
6. CCc1cc2c(cc1N1CCC(N3CCOCC3)CC1)C(C)(C)c1[nH]c3cc(C#N)ccc3c1C2=O [Alectinib] (top concentration 1000 nM)

1. 4.44
2. -1.2
3. -0.22
4. 0.84
5. -4.92
6. -0.22

I have 7 compounds here; please give me selective drug sensitivity score for each one.
1. CNC(=O)c1ccc2cc([C@@]3(O)CCn4cncc43)ccc2c1 [Orteronel] (top concentration 10000 nM)
2. Nc1cc(COc2c(Cl)cc(C[C@H](N)C(=O)O)cc2Cl)c2oc(-c3ccccc3)nc2c1 [JPH203] (top concentration 5000 nM)
3. CNC(=O)CN1CCC(Oc2cc3c(Nc4cccc(Cl)c4F)ncnc3cc2OC)CC1 [Sapitinib] (top concentration 1000 nM)
4. CC(=O)Nc1cccc(-n2c(=O)n(C3CC3)c(=O)c3c(Nc4ccc(I)cc4F)n(C)c(=O)c(C)c32)c1 [Trametinib] (top concentration 250 nM)
5. O=c1[nH]cc(F)c(=O)[nH]1 [Fluorouracil] (top concentration 10000 nM)
6. CCCOc1ccn2c(C(C)=O)cc(-c3ccccc3S(C)(=O)=O)c2c1 [GSK2801] (top concentration 10000 nM)
7. CO[C@H]1C[C@@H]2CC[C@@H](C)[C@@](O)(O2)C(=O)C(=O)N2CCCC[C@H]2C(=O)O[C@H]([C@H](C)C[C@@H]2CC[C@@H](OP(C)(C)=O)[C@H](OC)C2)CC(=O)[C@H](C)/C=C(\C)[C@@H](O)[C@@H](OC)C(=O)[C@H](C)C[C@H](C)/C=C/C=C/C=C/1C [Ridaforolimus] (top concentration 100 nM)

0
0
0
-0.24
-0.24
-0.36
-4.84

// provenance: the supplement of paper PMC8967900
